Attribute: Percent Effect
Biological target: Arginase-2, mitochondrial (Homo sapiens)
Experiment: in vitro enzyme assay to detect the production of urea directly proportional to the activity of Arginase II; also: in the data most compounds retested in dose-response had high values
Type: functional
Design: scale not given: direction of the effect not stated beside the values
Conditions: 30 µM

| compound | tested-target | Percent Effect [%] |
| --- | --- | --- |
| O=C(O)C(c1ccc(Cl)c(F)c1)N1CCN(Cc2ccccn2)CC1 (stereo not drawn) | Arginase-2, mitochondrial (Homo sapiens) | 5.95 |
| Cc1cc(C(=O)N2CCCC(c3nccn3Cc3cscn3)C2)on1 (stereo not drawn) | Arginase-2, mitochondrial (Homo sapiens) | 9.19 |
| CN(C)c1ccc(NC(=O)C2CN(Cc3ccccc3)CCO2)cn1 (stereo not drawn) | Arginase-2, mitochondrial (Homo sapiens) | 10.3 |
| COc1ccc2c(c1)OCC(CNC(=O)c1cnc(NC(C)C)nc1)C2 (stereo not drawn) | Arginase-2, mitochondrial (Homo sapiens) | 2.7 |
| COc1ccc(C)cc1C(C(=O)O)N1CCN(Cc2ccccn2)CC1 (stereo not drawn) | Arginase-2, mitochondrial (Homo sapiens) | 4.87 |
| COC(=O)c1ccc(C2SC(C)=Nc3c2c(=O)[nH]n3C2CCCC2)cc1 (stereo not drawn) | Arginase-2, mitochondrial (Homo sapiens) | 11.3 |
| Cc1cccc(C(=O)N2CCCC(c3nccn3Cc3cscn3)C2)n1 (stereo not drawn) | Arginase-2, mitochondrial (Homo sapiens) | 9.19 |
| O=C(Cn1nc2c(cc1=O)CSCC2)N[C@@H](Cc1ccccc1)C(=O)O | Arginase-2, mitochondrial (Homo sapiens) | 11.3 |
| O=c1[nH]c2c(c(=O)n1C1CCCCC1)CCC2Nc1ccccn1 (stereo not drawn) | Arginase-2, mitochondrial (Homo sapiens) | 5.95 |
| CC(C)(C)OC(=O)Cn1cccc(S(=O)(=O)N2CCCC2)c1=O | Arginase-2, mitochondrial (Homo sapiens) | 7.03 |
| CC1=Nc2c(c(=O)[nH]n2C2CCCC2)C(c2ccc(O)cc2)S1 (stereo not drawn) | Arginase-2, mitochondrial (Homo sapiens) | 5.95 |
| Cc1nc(NCC2CC2)nc2c1COCC21CCN(C(=O)NC(C)C)C1 (stereo not drawn) | Arginase-2, mitochondrial (Homo sapiens) | 7.03 |
| OC(CN(Cc1ccccc1)Cc1cscn1)c1cccs1 (stereo not drawn) | Arginase-2, mitochondrial (Homo sapiens) | 8.11 |
| NC(=O)CN1CCC(c2cncc(-c3cccc(Cl)c3)n2)CC1 | Arginase-2, mitochondrial (Homo sapiens) | 2.7 |
| COCC(=O)N1CCC(c2cncc(-c3cccc(F)c3)n2)CC1 | Arginase-2, mitochondrial (Homo sapiens) | -5.95 |
| Cc1nc(N2CCN(C(=O)NCc3cscn3)CC2)sc1C | Arginase-2, mitochondrial (Homo sapiens) | 5.95 |
| Cc1ccc([C@@H]2CN(S(=O)(=O)c3ccccc3)C[C@H]2N(C)C)cc1 | Arginase-2, mitochondrial (Homo sapiens) | 3.78 |
| CC1=Nc2c(c(=O)[nH]n2C2CCOCC2)C(c2cccc(O)c2)S1 (stereo not drawn) | Arginase-2, mitochondrial (Homo sapiens) | 2.7 |
| COc1ccccc1Oc1ncccc1CNC(=O)[C@H](C)O | Arginase-2, mitochondrial (Homo sapiens) | 4.87 |
| O=C(NCCO)c1coc(CN2CCN(c3ccccc3F)CC2)n1 | Arginase-2, mitochondrial (Homo sapiens) | -8.11 |
| O=C(Cn1ccc2c(Cl)cccc21)N1CCCC1 | Arginase-2, mitochondrial (Homo sapiens) | 8.11 |
| Cn1cc(CC2CCN(C(=O)NCc3csc(C4CC4)n3)C2)cn1 (stereo not drawn) | Arginase-2, mitochondrial (Homo sapiens) | 7.03 |
| CNC(=O)[C@@H]1CCO[C@@H]2CCN(CCc3ccccc3)C[C@H]21 | Arginase-2, mitochondrial (Homo sapiens) | 8.11 |

* * *

Biological target: Tyrosyl-tRNA synthetase, putative (Trypanosoma cruzi (strain CL Brener)) (UniProt Q4DSP6)
Sequence (Q4DSP6 as listed by the source): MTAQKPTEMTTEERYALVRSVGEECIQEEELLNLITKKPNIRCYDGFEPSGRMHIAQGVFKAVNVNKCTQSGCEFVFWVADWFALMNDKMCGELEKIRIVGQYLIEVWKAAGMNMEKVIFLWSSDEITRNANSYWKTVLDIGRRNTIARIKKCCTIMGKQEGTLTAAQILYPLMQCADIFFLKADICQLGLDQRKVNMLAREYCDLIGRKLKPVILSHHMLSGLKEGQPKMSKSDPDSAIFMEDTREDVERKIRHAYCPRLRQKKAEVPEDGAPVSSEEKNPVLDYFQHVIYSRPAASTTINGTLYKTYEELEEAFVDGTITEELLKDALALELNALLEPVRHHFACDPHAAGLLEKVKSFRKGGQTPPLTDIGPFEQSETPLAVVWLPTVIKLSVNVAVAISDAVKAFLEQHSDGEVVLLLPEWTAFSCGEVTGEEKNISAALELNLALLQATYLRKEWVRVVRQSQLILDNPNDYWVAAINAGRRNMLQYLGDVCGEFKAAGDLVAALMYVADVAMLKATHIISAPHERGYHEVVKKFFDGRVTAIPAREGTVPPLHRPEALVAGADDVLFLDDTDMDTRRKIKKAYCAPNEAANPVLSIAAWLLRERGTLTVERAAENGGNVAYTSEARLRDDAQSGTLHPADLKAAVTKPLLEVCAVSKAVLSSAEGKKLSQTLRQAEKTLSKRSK
Assay: Trypanosoma cruzi tyrosyl tRNA synthetase (TcYRS) SOP
Format: functional
Set-up: scale not given: direction of the effect not stated beside the values
Details: 30 µM
Attribute: Percent Effect

| compound | Percent Effect (%) |
| --- | --- |
| CCc1nc(C2CCCN2C(=O)c2ccoc2C)no1 (centres undefined) | -18.1 |
| Cc1cc(C)n(CC2CCCN2CCS(=O)(=O)c2ccccc2)n1 (centres undefined) | -1.21 |
| CCCC(=O)N1CCC2(CC1)CC(NC(C)=O)c1ccccc1O2 (centres undefined) | -5 |
| Cc1cc(NC(=O)N(CC2CCOC2)C2CC2)no1 (centres undefined) | 12.8 |

* * *

Target: Protein translocase subunit SecA (Escherichia coli (strain K12))
Experiment: Assay to Identify E. coli SecA ATPase Inhibitors
Assay type: functional
Set-up: scale not given: direction of the effect not stated beside the values
Conditions: 30 µM
Results with a measured potency or affinity are listed apart.
Attribute: Percent Effect
endpoint-name: Percent Effect

| compound | endpoint-result |
| --- | --- |
| CCn1cc(CN2CCCC(c3[nH]ncc3S(C)(=O)=O)C2)cn1 (centres undefined) | -3.37% |
| CCc1noc(C(C)N2CCC(N3CCCC3)CC2)n1 (centres undefined) | -9.65% |
| O=C(c1ccco1)N1CCC2(CCC(=O)N2Cc2cccc(F)c2)CC1 | -1.47% |
| Cc1cc(C)n(CC2CN(Cc3nc(-c4ccco4)no3)CCO2)n1 (centres undefined) | -4.45% |
| O=C(CSC1CCc2ccccc2NC1=O)NCCc1ccco1 (centres undefined) | -1.93% |
| Cc1n[nH]c(=O)c2c(NC(=O)CN3CCOC(C)C3)oc(C)c12 (centres undefined) | 1.61% |
| CCCC(=O)N1CCC2(CC1)CC(NC(C)=O)c1ccccc1O2 (centres undefined) | 0.455% |
| Cc1occc1CNC(=O)N(CCCO)C1CCc2ccccc21 (centres undefined) | -4.54% |
| CC[C@@H]1N(Cc2ccsc2)CCC[C@]12CCC(=O)N2CCOC | -4.26% |
| Cc1cccnc1CNCC1(O)CCCN(Cc2ccc(F)cc2)C1=O (centres undefined) | -5.67% |
| COc1ccc(F)cc1C(=O)N(C)Cc1cc(C)on1 | -0.183% |
| Cc1cnc(N2CCC3(CCN(CC4CC4)C3=O)CC2)nc1 | -0.786% |
| CC(C)N(Cc1cccc(F)c1)Cc1nc2c(cnn2C)c(=O)[nH]1 | -1.46% |
| CNC(=O)N1C[C@H]2C[C@H](C(=O)Nc3ccccc3)[C@@H](C1)O2 | -6.94% |
| O=C(NCc1cc(O)ncn1)C1COc2ccccc2C1 (centres undefined) | -3.59% |
| CN(Cc1nnc(C2CC2)o1)C1CCN(CCCc2cnn(C)c2)C1 (centres undefined) | -0.864% |
| Cc1noc(C2CCN(C(=O)CCc3nccs3)CC2)n1 | 0.362% |
| Cc1noc(C)c1CN(C)C(=O)NC1CCN(c2ncccn2)CC1 | -4.16% |
| C[C@@H]1CN(C(=O)c2cccs2)C[C@]12CCN(CCN(C)C)C2=O | -6.68% |
| CN(C)CC(=O)N1CCC2(CC1)COC(COc1ccccn1)C2 (centres undefined) | -4.97% |
| CC[C@H](C)Nc1nccc(-c2cnc3sc(C)c(C)n3c2=O)n1 | -6.51% |
| O=C1CC(c2ccccc2)C2(CCN(Cc3ccccn3)CC2)N1 (centres undefined) | 0.295% |
| NC(=O)C1(CCCc2cccnc2)CCCN(c2ncccn2)C1 (centres undefined) | -2.51% |
| Cc1cc2c(cc1C(=O)N1CC[C@H](CO)[C@@H](O)C1)OCCO2 | -9.1% |

* * *

Target: Ubiquitin-activating enzyme e1, putative (Leishmania donovani (strain BPK282A1)) (UniProt E9BSI1)
Sequence (whole entry): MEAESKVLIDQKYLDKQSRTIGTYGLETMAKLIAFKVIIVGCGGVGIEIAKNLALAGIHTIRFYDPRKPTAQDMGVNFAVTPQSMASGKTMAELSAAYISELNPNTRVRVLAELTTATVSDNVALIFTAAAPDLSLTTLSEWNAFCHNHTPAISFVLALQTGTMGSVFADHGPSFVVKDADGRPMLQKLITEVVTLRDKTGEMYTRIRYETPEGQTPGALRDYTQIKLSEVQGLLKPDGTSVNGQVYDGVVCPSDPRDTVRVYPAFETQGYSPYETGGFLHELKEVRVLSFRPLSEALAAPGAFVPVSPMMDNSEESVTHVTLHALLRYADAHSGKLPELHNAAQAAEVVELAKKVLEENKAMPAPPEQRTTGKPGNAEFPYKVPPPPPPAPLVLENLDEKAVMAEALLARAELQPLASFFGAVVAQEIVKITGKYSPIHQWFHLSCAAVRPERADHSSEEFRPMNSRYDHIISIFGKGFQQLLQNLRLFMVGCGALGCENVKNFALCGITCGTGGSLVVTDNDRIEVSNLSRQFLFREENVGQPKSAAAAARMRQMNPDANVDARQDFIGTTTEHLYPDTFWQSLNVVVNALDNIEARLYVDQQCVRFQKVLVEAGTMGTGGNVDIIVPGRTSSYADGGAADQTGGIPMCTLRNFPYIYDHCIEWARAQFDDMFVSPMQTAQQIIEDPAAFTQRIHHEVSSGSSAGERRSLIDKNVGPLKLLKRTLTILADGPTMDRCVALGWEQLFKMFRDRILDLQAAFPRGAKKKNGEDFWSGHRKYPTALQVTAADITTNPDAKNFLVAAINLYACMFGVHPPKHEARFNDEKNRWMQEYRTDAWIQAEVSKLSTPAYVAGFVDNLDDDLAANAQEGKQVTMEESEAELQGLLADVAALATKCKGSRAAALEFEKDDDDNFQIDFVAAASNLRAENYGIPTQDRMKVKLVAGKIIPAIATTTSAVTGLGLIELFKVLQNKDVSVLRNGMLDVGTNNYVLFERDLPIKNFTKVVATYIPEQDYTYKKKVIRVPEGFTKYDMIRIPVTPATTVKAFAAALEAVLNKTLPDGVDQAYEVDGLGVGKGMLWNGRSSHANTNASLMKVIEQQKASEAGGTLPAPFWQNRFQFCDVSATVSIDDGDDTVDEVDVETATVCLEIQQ
Assay: Leishmania donovani Ubiquitin Activating Enzyme (LdE1)
Assay type: functional
Set-up: scale not given: direction of the effect not stated beside the values
Conditions: 30 µM
Potency and affinity values are given separately.
endpoint-name: Percent Effect (%)

| molecule | units-symbol | endpoint-result |
| --- | --- | --- |
| CNc1snc(C)c1C(=O)N1CCCC(n2ccnc2C(C)C)C1 (stereo not given) | % | 0 |
| COc1ccc(C(=O)NCCCn2ccnc2)c(OC)n1 | % | 24.7 |
| C[C@@H]1CN(C(=O)c2cccs2)C[C@]12CCN(CCN(C)C)C2=O | % | 9.09 |
| O=C(C1CCOC1)N1CCc2ncc(CNc3ccccn3)n2CC1 (stereo not given) | % | 1.3 |
| COCCc1noc(CNC2CCSC2)n1 (stereo not given) | % | 5.41 |
| c1ccc(-c2nc(CN3CCc4c(ncn4C4CC4)C3)cs2)cc1 | % | 5.2 |
| CN1CC(c2ccccc2)CC12CCN(C(=O)c1cncc(Cl)c1)CC2 (stereo not given) | % | 5.41 |
| CCN1CCC2(C=C(C(=O)NC3CC3)c3ccccc32)CC1 | % | 6.49 |
| CC(C)c1cc(NC(=O)CN2CCNC(=O)C2)on1 | % | 26 |
| CN(C)CCCn1ccnc1C1CCCN(c2cc(N)ncn2)C1 (stereo not given) | % | 2.7 |
| Cn1ccnc1CN1CCCC1c1noc(C2CC2)n1 (stereo not given) | % | 0 |
| CC(C)(O)CN1CCN(C(=O)c2cccnc2O)CC1 | % | -2.56 |
| CNC(=O)N1C[C@H]2C[C@H](C(=O)Nc3ccccc3)[C@@H](C1)O2 | % | -35.1 |
| CCc1ncnc2c1CCN(Cc1ccc(OC)cc1)CC2 | % | -6.49 |
| CC(C)Oc1ncccc1CNC(=O)c1ccco1 | % | 16 |
| COc1cc(S(=O)(=O)N2CCc3ccc(F)cc32)cc(C(=O)O)c1OC | % | 10.7 |
| CNC(=O)[C@@H]1C[C@H]2CN(Cc3nccs3)C[C@H]2N1C | % | 27.3 |
| Cc1nc(O)c2nnn(C[C@H]3CCCN3C(=O)C(C)(C)C)c2n1 | % | 12 |
| CCOCCN1CCCC(c2cc(C(N)=O)[nH]n2)C1 (stereo not given) | % | 0 |
| CC(Cn1cccn1)NC(=O)Cc1cccs1 (stereo not given) | % | 16 |
| CCn1c(Cn2cncn2)nnc1C1CCN(Cc2ccc(C)o2)CC1 | % | 5.41 |
| CC(C)(C)c1nnc(CN2CCCC(Cn3cncn3)C2)o1 (stereo not given) | % | -2.56 |
| Cc1nc(CNCC2CN(C)CCO2)cs1 (stereo not given) | % | 18.2 |
| CCc1ccc(O)c(C(=O)NC2CCN(C(=O)OC)CC2)c1 | % | 15.4 |
| CCc1nccn1-c1cncc(C2CCCN2Cc2cccnc2)n1 (stereo not given) | % | 9.33 |
